# Assay Explanation: Stability of compound in FBS assessed as drug degradation at 80 uM incubated for 2 hrs by RP-HPLC analysis
# Assay type: physicochemical
# Protocol Conditions: cattle, fetal bovine serum (FBS); read-out: Drug degradation
Readout Label: metabolised at 2 h, 80 µM (%)
Give the number; % is assumed, so skip it.

input: // returns reported metabolised at 2 h, 80 µM for input Ac-FSSKSEYQLVVNAVRKLQESGFYWSAVT-NH2
output: 100
